Target: aldose reductase (Bos taurus, UniProt P16116)
Construct: preparation of the enzyme from bovine lens; from tissue; host or cells: bovine lens
Assay: in vitro aldose reductase inhibition (modified Hayman and Kinoshita; enzyme from bovine lens)
Format: biochemical
Conditions: read-out: % Inhibition IN VITRO
Description: Only two minor reagent changes were made: (a) The rinsing mixture was an aqueous 5% (w/v) trichloroacetic acid solution and (b) the stock solution was prepared by dissolving 25 mg of dulcitol in 100 ml of an aqueous trichloroacetic acid solution. [N.B.: For each experiment the average value found in the tissue from rats fed the glucose diet was subtracted from the individual values found in the corresponding tissue in galactose-fed rats to obtain the amount of polyol accumulated.] […]
The reader will find reported inhibition at 1 µM values listed item by item below.
# unit: % | format: bare number

Below are worked cases with known answers.
>  <compound>
COc1ccc2c(c1)C(=O)N(Cc1ccc(Br)cc1F)C(=O)C21CC(=O)NC1=O (centres unmarked)

>  <system.name>
aldose reductase (Bos taurus, UniProt P16116)

>  <unit.of.measurement>
%

>  <inhibition at 1 µM>
96

$$$$
>  <compound>
CCCCN1C(=O)c2ccccc2C2(CC(=O)NC2=O)C1=O (centres unmarked)

>  <system.name>
aldose reductase (Bos taurus, UniProt P16116)

>  <unit.of.measurement>
%

>  <inhibition at 1 µM>
86

$$$$
>  <compound>
O=C1C[C@]2(C(=O)N1)C(=O)N(Cc1ccc(Br)cc1F)C(=O)c1ccc(F)cc12

>  <system.name>
aldose reductase (Bos taurus, UniProt P16116)

>  <unit.of.measurement>
%

>  <inhibition at 1 µM>
97

$$$$
>  <compound>
O=C1CC2(C(=O)N1)C(=O)N(Cc1ccc(Br)cc1F)C(=O)c1c(F)cccc12 (centres unmarked)

>  <system.name>
aldose reductase (Bos taurus, UniProt P16116)

>  <unit.of.measurement>
%

>  <inhibition at 1 µM>
94

$$$$

Q: Lab note: need inhibition at 1 µM for "O=C1C[C@@]2(C(=O)N1)C(=O)N(Cc1ccc(Br)cc1F)C(=O)c1ccccc12" on aldose reductase (Bos taurus, UniProt P16116), anyone have it?
A: 93
